System: U251 CNS
# GI50 values compiled below

# example entries with known answers
COc1cc2c(/C=C3\C(=O)N(C)c4ccccc43)c[nH]c2cc1C ... 0.499 µM
COc1cc(CSc2nc3ccc(Cl)cc3c(=O)n2Cc2ccccc2)cc(OC)c1OC ... 4.36 µM

Measured GI50 for this entry `CCCN(CCC)c1ccc(/C=N/NC(=O)c2cccnc2)c(C)c1` on U251 CNS: 13.3 µM

---

Test system: HT29 colon
Measurement protocol: NCI tumour cell line growth inhibition, 48 h
Property name: TGI

Lab note: measured TGI of `CCOC(=O)c1cc(=O)c2cccc3c2n1CCS3` was > 100 µM

So for `CN(CCNC(=O)c1cn(C)c2c1ccc1ccccc12)CCNC(=O)c1cn(C)c2c1ccc1ccccc12` , the logged TGI turned out to be > 100 µM

---

System: MDA-MB-435
Log the outcome using a class from active, inactive

// below: answered compounds
O=C(Nc1ccc(I)cc1F)c1cc(Br)ccc1O ... inactive
CCOC(=O)c1c(NN2CCN(CC(F)(F)F)CC2)oc(/C=C2\C=Nc3ncccc32)c1O ... inactive
Nc1nc(Sc2ccc([N+](=O)[O-])c3nonc23)c2ncn(C3OC(CO)C(O)C3O)c2n1 (configuration not stated) ... inactive

Input: Hi, do you know how `CC(=O)O[C@@H]1c2c(c3c(=O)c4cccc(O)c4c(=O)c=3c2=[N+]=[N-])[C@H](OC(C)=O)[C@@H](OC(C)=O)[C@]1(C)O` came out in this test?
Output: active

Input: GET /call?item= `Cc1[nH]c2ccccc2c1CO` returns the recorded outcome of this test.
Output: inactive

Input: What did the test return for `CCCCCN(CCCCC)CCC[C@@H](C)[C@H]1CC[C@H]2[C@@H]3[C@H](OCCCN)C[C@@H]4C[C@H](OCCCN)CC[C@]4(C)[C@H]3C[C@H](OCCCN)[C@]12C` ?
Output: inactive

Input: Assay result, entry `COc1ccc(-c2cnc(-c3ccc(OC)cc3)n2-c2cc(OC)c(OC)c(OC)c2)cc1` — outcome?
Output: inactive

---

System: OVCAR-4 ovarian
Measurement protocol: NCI tumour cell line growth inhibition, 48 h
The following molecules are listed with their measured TGI values.

NC(=O)c1cn(C2CC(O)C(CO)O2)c2ncnc(N)c12 (stereo not given) ... > 100 µM

Recorded result, `C/C(=N\O)c1ccc(OCc2cc(C(F)(F)F)cc(C(F)(F)F)c2)cc1` , TGI: > 100 µM

The recorded TGI for entry CC1(O)CC2C(CC1SC1CC3C(CC1(C)O)C3(C)C)C2(C)C (stereo not given) equals 94.1 µM

---

Tested on: SK-OV-3 ovarian
Measurement protocol: NCI tumour cell line growth inhibition, 48 h
Property name: TGI (µM)
Report only the number, with the unit µM understood.

Take a look at these entries with their results.
NC(=O)c1cn(C2CC(O)C(CO)O2)c2ncnc(N)c12 (centres undefined) ... 43
CCCCCN(CCCCC)CCC[C@@H](C)[C@H]1CC[C@H]2[C@@H]3[C@H](OCCCN)C[C@@H]4C[C@H](OCCCN)CC[C@]4(C)[C@H]3C[C@H](OCCCN)[C@]12C ... 34.9
Cc1cc(-c2nc3sc(C)cn3c2/C=N/N=C(N)N)c(C)s1 ... 39.1

SK-OV-3 ovarian assay, molecule `Clc1ccc(-c2cnc3c(-c4ccnc(N5CCNCC5)c4)cnn3c2)cc1` , recorded TGI = 5.63
